Kindly supply the reported Nitrites, hippocampus values for the records listed here.
# System: nitrites and nitrates (NOx-)
# assay.summary: Measurement of nitrates/nitrites (NOx-) in brain regions after the morphine abstinence experiment
# Format: in vivo, Wistar rats
# measurement.parameters: Morphine + compound, 3 x 20 mg/kg intramuscularly; one value for the three compounds

# get_value(readout= Nitrites, hippocampus, system= nitrites and nitrates (NOx-)) for O=c1[nH][nH]c(=O)c2ncncc12.[Li]
5.31 ± 0.33 nmol/mg of protein

Moving on to Nc1cnc2c(=O)n([C@@H]3O[C@H](CO)[C@@H](O)[C@H]3O)[nH]c(=O)c2n1.[Na]
5.27 ± 0.41 nmol/mg of protein

Moving on to Nc1ccc2c(=O)n([C@@H]3O[C@H](CO)[C@@H](O)[C@H]3O)[nH]c(=O)c2c1.[Na]
5.24 ± 0.49 nmol/mg of protein

Moving on to O=c1[nH][nH]c(=O)c2ncccc12.[Li]
5.44 ± 0.43 nmol/mg of protein

Moving on to O=c1[nH]n([C@@H]2O[C@H](CO)[C@@H](O)[C@H]2O)c(=O)c2ncccc12.[Na]
5.44 ± 0.43 nmol/mg of protein
